Source listed as patent US20250304658A1.

# MEASURED_TARGET: BK virus VP1 protein, genotype III (BK virus)
# MEASUREMENT_DESCRIPTION: cell-based or functional assay
MEASURED_PARAMETER: EC50, pseudovirus neutralization (mAb mixed with irrelevant isotype matched mAb M2) (nM)
Answer format: numeric, nM implied, no suffix.

Q) For the binder 9G9 (antibody, V domains shown) VH: EVQLLESGGGLVQPGGSLRLSCAASGFTFHNYAMSWVRQAPGKGLEWVSGISGSGGTAYYADSVKGRFTISRDNSKNTLYLQMNSLRADDTALYYCAKDRFLEWVEGFDSWGQGTLVTVSS VL: DIQMTQSPSSLSASVGDRVTITCRASQSIGSFLIWYQQKPGKAPKLLIYAASSLQSGVPSRFSGSGSGTDFTLIISSLQPEDFATYYCQQSYNTPLTFGGGTKVEIK , what EC50, pseudovirus neutralization (mAb mixed with irrelevant isotype matched mAb M2) is on record?
A) 1.29

Q) What value of measured EC50, pseudovirus neutralization (mAb mixed with irrelevant isotype matched mAb M2) is listed for 2A10 (antibody, V domains shown) VH: EVQLVQSGAEVKKPGESLKISCKGSGYSFTYYWIGWVRQMPGKGLEWMGIIYPGDSDTRYSPSFQGQVTISADKSISTAYLQWSSLKASDTAMYYCTTHARNWNNVAYWGQGTLVTVSS VL: DIQMTQSPSSLSASVGDRLTITCRASQNINTFLNWYQQNPGKAPKVLIYAASSLESGVPSRFSGSGSGTDFTLTISSLQPEDFATYYCQQSSSTPWTFGQGTKVEIK ?
A) 0.000654

Q) What value of EC50, pseudovirus neutralization (mAb mixed with irrelevant isotype matched mAb M2) has been reported for the following binder? 2F11 (antibody, V domains shown) VH: EVQLVQSGAEVKKPGESLKISCKGSGYSFTNYWIGWVRQMPGKGLEWMGIIYPGDSDTRYSPSFQGQVTLSADKSISTAYLQWNSLKASDTAMYYCATHARSWNYVAYWGQGTLVTVAS VL: DIQMTQSPSSLSASVGDRVTITCRASQSVNNFLNWYQQKPGTAPKLLIYAASSLQGGVPSRFSGSGSGTDFTLTISSLQPEDFATYYCQQSNTTPWTFGQGTKVEIK
A) 0.0061

Q) Bench note: what EC50, pseudovirus neutralization (mAb mixed with irrelevant isotype matched mAb M2) did 6H12 (antibody, V domains shown) VH: EVQLVESGGGLVQPGGSLRLSCAASGFTFSSYEMNWVRQAPGKGLEWVSYISSGGSSIKYADSVRGRFAFSRDNAENSVHLQMNSLRAEDTAVYYCARVGGSYYYSYAMDVWGQGTAVTVSS VL: DIQLTQSPSFLSASVGDRVTITCWASQDISSYLAWYQQKPGKAPKLLIYAASTLQSGVPSRFTGSGSGTEFTLTISSLQPEDFATYYCQQPHNSPFSFGPGTKVDVK show?
A) 0.172
